Data provenance is ChEMBL document CHEMBL5523681.

assay.procedure: Stability of compound in CH3CN under dark condition
Format: physicochemical

| structure.smiles.string | Stability |
| --- | --- |
| CCN(CC)Cc1ccc(C2=C(I)C(c3ccc(OC)cc3)=[N+]3C2=Nc2c(-c4ccc(CN(CC)CC)cc4)c(I)c(-c4ccc(OC)cc4)n2[B-]3(F)F)cc1 | Unstable |
| CCN(CC)Cc1ccc(C2=C(I)C(c3ccc(OC)cc3)=[N+]3C2=Nc2c(-c4ccccc4)c4c(n2[B-]3(F)F)-c2ccc(OC)cc2CC4)cc1 | Stable |
| CCN(CC)Cc1ccc(C2=C(Br)C(c3ccc(OC)cc3)=[N+]3C2=Nc2c(-c4ccc(CN(CC)CC)cc4)c(Br)c(-c4ccc(OC)cc4)n2[B-]3(F)F)cc1 | Unstable |
| CCN(CC)Cc1ccc(C2=C(I)C(c3ccc(OC)cc3)=[N+]3C2=Nc2c(-c4ccc(CN(CC)CC)cc4)cc(-c4ccc(OC)cc4)n2[B-]3(F)F)cc1 | Stable |
| CCN(CC)Cc1ccc(C2=C(I)C(c3ccc(OC)cc3)=[N+]3C2=Nc2c(-c4ccccc4)c(I)c(-c4ccc(OC)cc4)n2[B-]3(F)F)cc1 | Unstable |
